Data provenance: patent US20240018146A1

- Tested on: HeLa MKYP cells
- measurementDescription: Cell death measured by DAPI staining, with 1 μM FCCP/oligomycin or no toxin (no FO)
- Type: cell-based
- recordedConditions: with 1 μM FO
Overview of recorded Max % death with 1 μM FO for various compounds

C[C@@H]1CN([C@@H]2CCc3ccccc3[C@H]2Nc2ncnc3[nH]c(C4CC4)cc23)C[C@H](C)O1 (single isomer, unassigned) [EP-0040499] = 4.3%
C[C@H]1CN([C@@H]2COc3ccccc3[C@H]2Nc2ncnc3[nH]c(C4CC4)cc23)CCO1 [EP-0041000] = 6.5%
c1ccc2c(c1)OC[C@H](N1C[C@H]3COC[C@H]3C1)[C@H]2Nc1ncnc2[nH]c(C3CC3)cc12 (single isomer, unassigned) [EP-0040391] = 3.9%
c1ccc2c(c1)OC[C@@H](N1CCOCC1)[C@@H]2Nc1ncnc2[nH]c(C3CC3)cc12 (single isomer, unassigned) [EP-0040181] = 5.9%
C[C@@H]1COCCN1[C@H]1CCc2ccccc2[C@@H]1Nc1ncnc2[nH]c(C3CC3)cc12 (single isomer, unassigned) [EP-0040358] = 97.8%

Lookup: Specify measured Max % death with 1 μM FO for C[C@@H]1CN([C@@H]2COc3cc(F)ccc3[C@H]2Nc2ncnc3[nH]c(C(F)(F)F)cc23)C[C@H](C)O1 [EP-0040947] .
Found: 16.6%

Lookup: Indicate the recorded Max % death with 1 μM FO value for this compound: COC[C@@H]1CCN([C@H]2COc3ccccc3[C@@H]2Nc2ncnc3[nH]c(C(F)(F)F)cc23)C1 (single isomer, unassigned) [EP-0041072]
Found: 8.0%

====

- System: HeLa MKYP cells
- measurementDescription: Human mitophagy assay (HeLa mKeima assay, FACS)
- Assay type: cell-based
- recordedConditions: Homo sapiens, HeLa; read-out: Mitophagy induction EC50
pEC50: −log10 of the molar value.
Everything with pEC50 lower than 6 is 0.0; everything else, including exactly 6, is 1.0.

Take a look at these entries with their results.
CC(C)(O)C1CN([C@H]2COc3ccccc3[C@@H]2Nc2ncnc3[nH]c(C(F)(F)F)cc23)C1 (single isomer, unassigned) = 0.0
N#Cc1ccc2c(c1)CC[C@H](N1C[C@H]3COC[C@H]3C1)[C@H]2Nc1ncnc2[nH]c(C(F)(F)F)cc12 = 0.0
c1ccc2c(c1)CC[C@@H](C1CCOCC1)[C@H]2Nc1ncnc2[nH]c(C3CC3)cc12 = 0.0

Lookup: pEC50 >= 6 for C[C@@H]1CN([C@H]2COc3ccccc3[C@@H]2Nc2ncnc3[nH]c(C(F)(F)F)cc23)C[C@H](C)O1 [EP-0040942] ?
Found: 0.0

Lookup: Does Fc1ccc2c(c1)CC[C@H](N1C[C@H]3COC[C@@H]3C1)[C@H]2Nc1ncnc2[nH]c(C(F)(F)F)cc12 have a reported pEC50 of at least 6?
Found: 1.0

Lookup: Could you tell me if the measured pEC50 of C[C@@H]1CN([C@@H]2COc3ccccc3[C@H]2Nc2ncnc3[nH]c(C(F)(F)F)cc23)CCO1 reaches 6 or more?
Found: 1.0

Lookup: Quick check, pEC50 >= 6? COC1CN([C@H]2COc3cc(F)ccc3[C@@H]2Nc2ncnc3[nH]c(C(F)(F)F)cc23)C1 (single isomer, unassigned)
Found: 0.0

Lookup: Hi, just wondering whether FC(F)(F)c1cc2c(N[C@H]3c4ccccc4CC[C@@H]3N3C4CCC3COC4)ncnc2[nH]1 shows pEC50 of 6 or higher.
Found: 0.0

Lookup: Check if pEC50 >= 6 (inclusive). Item: C[C@@H]1CN([C@@H]2COc3ccccc3[C@H]2Nc2ncnc3[nH]c(C4CC4)cc23)CCO1
Found: 1.0

Lookup: hey, is pEC50 for this one >= 6? C[C@@H]1CN([C@H]2COc3cc(F)ccc3[C@@H]2Nc2ncnc3[nH]c(C4CC4)cc23)C[C@H](C)O1 [EP-0040948]
Found: 0.0

Lookup: Tell me whether pEC50 is at least 6 here: FC(F)(F)c1cc2c(N[C@@H]3c4ccccc4CC[C@H]3C3CCOCC3)ncnc2[nH]1 (single isomer, unassigned)
Found: 0.0

Lookup: Please indicate if the recorded pEC50 for OC[C@@H]1CCCN1[C@H]1CCc2ccccc2[C@@H]1Nc1ncnc2[nH]c(C3CC3)cc12 meets or exceeds 6.
Found: 0.0

Lookup: Has FC(F)(F)c1cc2c(N[C@H]3c4ccccc4OC[C@@H]3C3CCOCC3)ncnc2[nH]1 (single isomer, unassigned) [EP-0040699] a recorded pEC50 greater than or equal to 6?
Found: 0.0

====

Measured EC50 by item
- Test system: HeLa MKYP cells
- measurementDescription: Human mitophagy assay (HeLa mKeima assay, FACS)
- Assay type: cell-based
- recordedConditions: Homo sapiens, HeLa; read-out: Mitophagy induction EC50
Field: numeric (nM). Do not append units.

Solved cases below.
Fc1ccc2c(c1)CC[C@@H](N1C[C@H]3COC[C@H]3C1)[C@@H]2Nc1ncnc2[nH]c(C(F)(F)F)cc12 (single isomer, unassigned) [EP-0040721] = 180
c1ccc2c(c1)OC[C@H](N1CCOCC1)[C@H]2Nc1ncnc2[nH]c(C3CC3)cc12 (single isomer, unassigned) [EP-0040180] = 260

Lookup: Please indicate recorded EC50 of c1ccc2c(c1)OC[C@@H](N1CCOCC1)[C@H]2Nc1ncnc2[nH]c(C3CC3)cc12 [EP-0040140] measured with HeLa MKYP cells.
Found: 8710

Lookup: Return reported EC50 for target or system HeLa MKYP cells, item N#CC1CN([C@H]2COc3ccccc3[C@@H]2Nc2ncnc3[nH]c(C(F)(F)F)cc23)C1 [EP-0041332] .
Found: 1540

====

- Tested on: HeLa MKYP cells
- measurementDescription: Human mitophagy assay (HeLa mKeima assay, FACS)
- Assay type: cell-based
- recordedConditions: Homo sapiens, HeLa; read-out: Mitophagy induction EC50
pEC50: −log10 of the molar value.
Binary classification by pEC50, with 6 as an inclusive lower bound for Y; all other cases are N.

Worked examples, 5 compounds total:
FC(F)(F)c1cc2c(NC3c4ccccc4OCC3N3C[C@@H]4COC[C@H]4C3)ncnc2[nH]1 (stereo partly shown) = Y
C[C@H]1CN([C@@H]2COc3ccccc3[C@H]2Nc2ncnc3[nH]c(C(F)(F)F)cc23)CCO1 = Y
c1ccc2c(c1)CC[C@H](N1C[C@@H]3COC[C@H]3C1)[C@H]2Nc1ncnc2[nH]c(C3CC3)cc12 = Y
Fc1ccc2c(c1)CC[C@@H](N1CCOCC1)[C@@H]2Nc1ncnc2[nH]c(C(F)(F)F)cc12 (single isomer, unassigned) = N
C[C@H]1CN([C@H]2CCc3ccccc3[C@@H]2Nc2ncnc3[nH]c(C(F)(F)F)cc23)CCO1 (single isomer, unassigned) = Y

Lookup: Is it the case that C[C@H]1CN([C@H]2COc3cc(F)ccc3[C@@H]2Nc2ncnc3[nH]c(C4CC4)cc23)CCO1 has pEC50 reaching or exceeding 6?
Found: N

Lookup: pEC50 >= 6 for FC(F)(F)c1cc2c(N[C@H]3c4ccccc4OC[C@H]3C3CCOCC3)ncnc2[nH]1 ?
Found: N

====

- System: HeLa MKYP cells
- measurementDescription: Cell death measured by DAPI staining, with 1 μM FCCP/oligomycin or no toxin (no FO)
- Format: cell-based
- recordedConditions: no FO; safe means DAPI+ <20%
The molecules listed here are annotated with their Highest safe dose (cytotoxicity; no FO; safe means DAPI+ <20%).
Number in µM, nothing else.

Lookup: Look up and state reported Highest safe dose (cytotoxicity; no FO; safe means DAPI+ <20%) for FC(F)(F)c1cc2c(N[C@H]3c4ccccc4OC[C@H]3N3CCOCC3)ncnc2[nH]1
Found: 25.0

Lookup: Provide Highest safe dose (cytotoxicity; no FO; safe means DAPI+ <20%) value for the following molecule: c1ccc2c(c1)OC[C@H](N1CCOCC1)[C@H]2Nc1ncnc2[nH]c(C3CC3)cc12 (single isomer, unassigned) [EP-0040180]
Found: 25.0

Lookup: Name the recorded Highest safe dose (cytotoxicity; no FO; safe means DAPI+ <20%) of the item O=C1COCCN1[C@H]1CCc2ccccc2[C@@H]1Nc1ncnc2[nH]c(C(F)(F)F)cc12 (single isomer, unassigned) in your answer.
Found: 25.0

====

- Test system: HeLa MKYP cells
- measurementDescription: Human mitophagy assay (HeLa mKeima assay, FACS)
- Assay type: cell-based
- recordedConditions: Homo sapiens, HeLa, HeLa mKeima assay; read-out: Mitophagy EC50 (HeLa mKeima assay)
Recorded EC50 by entry
Dear colleague, please send the value followed by its unit.

Lookup: Give the measured EC50 for FC(F)(F)c1cc2c(N[C@@H]3c4ccccc4CC[C@H]3N3CCOCC3)ncnc2[nH]1 (racemic) [EP-0037821]
Found: 400 nM

Lookup: Input FC1(F)CCN([C@H]2CCc3ccccc3[C@@H]2Nc2ncnc3[nH]c(C(F)(F)F)cc23)CC1 (single isomer, unassigned) [EP-0038393] , output reported EC50.
Found: 2430 nM

Lookup: Tell me measured EC50 for CN(c1ncnc2[nH]c(C(F)(F)F)cc12)C1c2ccccc2CCC1N1C[C@H]2COC[C@H]2C1 (stereo partly shown) [EP-0039742] please.
Found: 3330 nM

Lookup: Please report the measured EC50 for c1ccc2c(c1)CC[C@H](N1CCOCC1)[C@H]2Nc1ncnc2[nH]c(C3CC3)cc12 (racemic) [EP-0039677]
Found: 210 nM
